Cited source: patent US20240166635A1

Entries annotated with measured IC50
- target_under_test: CDK9/CyclinT1 (Homo sapiens (Human), UniProt P50750)
- Sequence (P50750 whole entry): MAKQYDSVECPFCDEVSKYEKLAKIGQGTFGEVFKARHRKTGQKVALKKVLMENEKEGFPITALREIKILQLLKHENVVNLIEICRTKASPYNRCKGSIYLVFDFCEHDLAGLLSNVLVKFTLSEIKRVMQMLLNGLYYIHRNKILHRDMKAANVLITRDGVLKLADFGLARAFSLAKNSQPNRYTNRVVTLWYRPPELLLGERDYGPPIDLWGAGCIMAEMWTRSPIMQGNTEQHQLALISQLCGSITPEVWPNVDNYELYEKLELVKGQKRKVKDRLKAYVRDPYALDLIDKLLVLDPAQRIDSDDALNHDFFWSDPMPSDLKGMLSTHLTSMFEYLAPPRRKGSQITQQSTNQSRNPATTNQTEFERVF
- Sequence (O60563 whole entry partner): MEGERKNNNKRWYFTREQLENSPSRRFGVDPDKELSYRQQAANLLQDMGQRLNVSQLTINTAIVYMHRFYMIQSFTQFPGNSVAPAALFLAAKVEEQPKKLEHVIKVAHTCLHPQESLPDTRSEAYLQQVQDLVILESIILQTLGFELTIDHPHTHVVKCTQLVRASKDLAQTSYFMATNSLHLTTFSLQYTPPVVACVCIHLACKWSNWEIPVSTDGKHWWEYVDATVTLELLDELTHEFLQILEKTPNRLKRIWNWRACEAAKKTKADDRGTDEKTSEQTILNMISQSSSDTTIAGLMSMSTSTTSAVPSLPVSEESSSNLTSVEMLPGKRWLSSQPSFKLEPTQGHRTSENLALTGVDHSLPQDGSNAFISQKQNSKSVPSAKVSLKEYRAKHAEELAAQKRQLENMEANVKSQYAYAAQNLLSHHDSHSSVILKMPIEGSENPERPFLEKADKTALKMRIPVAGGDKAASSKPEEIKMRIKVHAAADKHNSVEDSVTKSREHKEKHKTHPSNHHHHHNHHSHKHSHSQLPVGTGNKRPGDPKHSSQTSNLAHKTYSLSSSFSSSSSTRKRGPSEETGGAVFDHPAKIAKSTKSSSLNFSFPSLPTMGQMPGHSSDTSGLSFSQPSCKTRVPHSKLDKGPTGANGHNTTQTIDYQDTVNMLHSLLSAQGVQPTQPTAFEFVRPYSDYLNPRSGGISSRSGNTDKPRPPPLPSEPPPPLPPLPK
- assay: CDK9/CyclinT1 kinase inhibitory activity (Caliper mobility shift)
- protocol_conditions: read-out: CDK9/Cyclin T1 IC50

compound: N#Cc1cnc(Nc2ccc(S(=O)(=O)NC3COC3)cc2)nc1N1CCCCC1
IC50: 100 to 1000 nM
//
compound: CC1(O)CC(F)(F)CC1Oc1nc(NC2CCN(S(=O)(=O)CC3CC3)CC2)ncc1C#N (single isomer, unassigned) [Example 44a]
IC50: ≥ 1000 nM
//
compound: CC(C)CS(=O)(=O)N1CCC(Nc2ncc(C#N)c(OC3CCCC3(C)O)n2)CC1 (single isomer, unassigned) [Example 39a]
IC50: 100 to 1000 nM
//
compound: [2H]C([2H])([2H])NS(=O)(=O)c1ccc(Nc2ncc(CC)c(OC3COCCC3(C)O)n2)cc1 (single isomer, unassigned) [Example 153a]
IC50: 10 to 100 nM
//
compound: [2H]C([2H])([2H])NS(=O)(=O)c1ccc(Nc2ncc(Br)c(OC3CCCC3O)n2)cc1 (single isomer, unassigned) [Example 143a]
IC50: 100 to 1000 nM
//
compound: Cn1cc(S(=O)(=O)N2CCC(Nc3ncc(C(F)(F)F)c(OC4CCOCC4(C)O)n3)CC2)cn1 (single isomer, unassigned) [Example 125a]
IC50: 10 to 100 nM
//
compound: Cc1cnc(Nc2ccc(S(=O)(=O)NC3CC3)cc2)nc1OC1CCCC1O (single isomer, unassigned) [Example 146a]
IC50: 100 to 1000 nM
//
compound: N#Cc1cnc(Nc2ccc(S(N)(=O)=O)cc2)nc1N1CCCCCC1
IC50: 10 to 100 nM
//
compound: N#Cc1cnc(Nc2ccc(S(N)(=O)=O)cc2)nc1-c1cccc(O)c1
IC50: 10 to 100 nM
//
compound: CS(=O)(=O)N1CCC(Nc2ncc(C(F)(F)F)c(OC3CCCCC3O)n2)CC1 (single isomer, unassigned) [Example 120a]
IC50: 100 to 1000 nM
//
compound: CNS(=O)(=O)c1ccc(Nc2ncc(C(F)(F)F)c(O[C@H]3CCOC[C@H]3O)n2)cc1 (single isomer, unassigned) [Example 100b]
IC50: 100 to 1000 nM
//
compound: N#Cc1cnc(Nc2ccc(S(=O)(=O)NC3CC(F)(F)C3)cc2)nc1OC1CCCCC1O (single isomer, unassigned) [Example 32b]
IC50: ≥ 1000 nM
//
compound: CC1(COc2nc(NC3CCN(S(=O)(=O)CCO)CC3)ncc2C#N)CCCC1
IC50: 10 to 100 nM
//
compound: N#Cc1cnc(Nc2ccc(S(N)(=O)=O)cc2)nc1N1CCC[C@@H](CO)C1
IC50: 100 to 1000 nM
